SYSTEM NAME: GSK3β (Homo sapiens, UniProt P49841)
Sequence (P49841 whole entry, species assumed): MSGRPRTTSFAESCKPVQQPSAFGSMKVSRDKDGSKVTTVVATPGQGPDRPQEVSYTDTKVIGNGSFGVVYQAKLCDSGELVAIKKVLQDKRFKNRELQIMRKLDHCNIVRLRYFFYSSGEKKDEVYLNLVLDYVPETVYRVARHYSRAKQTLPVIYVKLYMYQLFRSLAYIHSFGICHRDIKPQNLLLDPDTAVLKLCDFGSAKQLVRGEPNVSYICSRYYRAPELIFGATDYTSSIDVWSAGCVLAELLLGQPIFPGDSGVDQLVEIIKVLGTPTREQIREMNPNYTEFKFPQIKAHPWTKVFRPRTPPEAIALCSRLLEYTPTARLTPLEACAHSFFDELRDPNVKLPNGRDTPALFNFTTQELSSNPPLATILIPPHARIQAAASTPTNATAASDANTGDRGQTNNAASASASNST
ASSAY INFO: GSK3β kinase assay (Caliper LabChip, fluoresceinated peptide substrate)
Format: biochemical
CONDITION DESCRIPTION: first value of the cell; 250 pM enzyme, 20 uM ATP, 20 hours at room temperature; read-out: GSK3β/α (nM): GSK3β IC50
Protocol: The kinase assay was performed in V-bottom 384-well plates. […] The reaction was incubated at room temperature for 20 hours and terminated by adding 45 μl of 35 mM EDTA to each sample. The reaction mixture was analyzed on the Caliper LabChip3000 (Caliper, Hopkinton, Mass.) by electrophoretic separation of the unphosphorylated substrate and phosphorylated product. […] Compounds were dissolved at 10 mM in dimethylsulfoxide (DMSO) and evaluated at eleven concentrations. […]
Values of IC50 strictly less than 3 nM map to TRUE, and values of at least 3 nM map to FALSE.

Below are worked cases with known answers.
INSERT INTO measurements (molecule, class_assignment) VALUES
  ('CC(=O)c1ccncc1NC(=O)c1ccnc(Nc2ccc(C(F)(F)F)cn2)c1', 'FALSE'),
  ('O=C(Nc1cnc(Cl)cc1[S+]([O-])C1CC1)c1ccnc(Nc2ccc(C(F)(F)F)cn2)c1 (centres unmarked)', 'FALSE'),
  ('CC1(c2cc(Cl)ncc2NC(=O)c2ccnc(Nc3ccc(C(F)(F)F)cn3)c2)CCCO1 (centres unmarked)', 'TRUE'),
  ('O=C(Nc1cnc(Cl)cc1C1(C2CC2)OCCO1)c1ccnc(Nc2ccc(C(F)(F)F)cn2)c1', 'TRUE'),
  ('O=C(Nc1cncnc1)c1ccnc(Nc2ccc(C(F)(F)F)cn2)c1', 'FALSE');

Lab note: IC50 threshold 3 nM. Does this molecule come in strictly under it? CC(C)(C)[S+]([O-])c1ccncc1NC(=O)c1ccnc(Nc2ccc(C(F)(F)F)cn2)c1 (centres unmarked)
TRUE

====

Please go through the items and note down their IC50.
SYSTEM NAME: UniProt P49840
Sequence (P49840 whole entry, species assumed): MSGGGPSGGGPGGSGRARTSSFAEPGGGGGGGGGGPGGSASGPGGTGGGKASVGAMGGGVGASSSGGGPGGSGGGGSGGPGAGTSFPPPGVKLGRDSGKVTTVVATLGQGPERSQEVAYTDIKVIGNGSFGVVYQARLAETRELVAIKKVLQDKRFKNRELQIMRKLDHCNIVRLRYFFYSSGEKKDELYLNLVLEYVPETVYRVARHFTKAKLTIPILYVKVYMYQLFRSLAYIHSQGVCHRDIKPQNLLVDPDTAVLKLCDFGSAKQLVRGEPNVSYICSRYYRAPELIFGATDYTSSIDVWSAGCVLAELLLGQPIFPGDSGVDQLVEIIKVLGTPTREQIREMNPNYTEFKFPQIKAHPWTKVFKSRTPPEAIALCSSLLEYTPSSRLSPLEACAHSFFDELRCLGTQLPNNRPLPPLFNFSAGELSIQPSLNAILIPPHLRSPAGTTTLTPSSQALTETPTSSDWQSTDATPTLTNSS
ASSAY INFO: GSK3α kinase assay (Caliper LabChip, fluoresceinated peptide substrate)
Assay type: biochemical
Answers are plain numbers, in nM.

INSERT INTO assay_data (molecule, system_name, readout_type, meas_value) VALUES
  ('N#CC1(c2ccc(Nc3cc(C(=O)Nc4cnccc4-c4ccccc4)ccn3)nc2)CC1', 'UniProt P49840', 'IC50', 0.29),
  ('CC(C)CSc1ccncc1NC(=O)c1ccnc(Nc2ccc(C(F)(F)F)cn2)c1', 'UniProt P49840', 'IC50', 0.4),
  ('O=C(Nc1cncc(-c2cccc(F)c2F)c1)c1ccnc(Nc2ccc(C(F)(F)F)cn2)c1', 'UniProt P49840', 'IC50', 20);

Count: 7. Required value per item: IC50.
1. N#Cc1ccc(Nc2cc(C(=O)Nc3cnccc3-c3ccc(F)cc3)ccn2)nc1
2. CC1(c2cc(Cl)ncc2NC(=O)c2ccnc(Nc3ccc(C(F)(F)F)cn3)c2)CCCO1 (stereo not drawn)
3. Cc1nc(Nc2cc(C(=O)Nc3cncc(-c4ccccc4F)c3)ccn2)ccc1C#N
4. CC(O)c1c(NC(=O)c2ccnc(Nc3ccc(C(F)(F)F)cn3)c2)cnn1C (stereo not drawn)
5. O=C(Nc1cncc(-c2ccccc2F)c1)c1ccnc(Nc2ccc(N3CCOCC3)cn2)c1
6. CC(C)(C)Sc1ccncc1NC(=O)c1ccnc(Nc2ccc(C(F)(F)F)cn2)c1
7. O=C(Nc1cncnc1-c1ccccc1)c1ccnc(Nc2ccc(C(F)(F)F)cn2)c1

1: 0.98; 2: 0.35; 3: 1.2; 4: 3.6; 5: 10; 6: 0.08; 7: 1.9

Count: 8. Required value per item: IC50.
1. CCCC(O)c1cc(Cl)ncc1NC(=O)c1ccnc(Nc2ccc(C(F)(F)F)cn2)c1 (stereo not drawn)
2. O=C(Nc1cncc(-c2ccccc2F)n1)c1ccnc(Nc2ccc(C(F)(F)F)cn2)c1
3. Cc1cc(-c2ccccc2)c(NC(=O)c2ccnc(Nc3ccc(C(F)(F)F)cn3)c2)cn1
4. O=C(Nc1cnccc1-c1ccc(Cl)cc1)c1ccnc(Nc2ccc(Cl)cn2)c1
5. O=C(Nc1cnc(F)cc1OCC(F)(F)F)c1ccnc(Nc2ccc(Cl)cn2)c1
6. O=C(Nc1cncnc1N1CCOCC1)c1ccnc(Nc2ccc(C(F)(F)F)cn2)c1
7. O=C(Nc1cnccc1-c1ccccc1)c1ccnc(Nc2ccc(F)cn2)c1
8. O=C(Nc1cnccc1-c1ccc(Cl)cc1)c1ccnc(Nc2ccc(C(F)(F)F)cn2)c1

1. 8.4
2. 29
3. 5.7
4. 1.2
5. 0.51
6. 7.9
7. 1.9
8. 6.9

Count: 2. Required value per item: IC50.
1. O=C(Nc1cnc(Cl)cc1C1(C2CC2)OCCO1)c1ccnc(Nc2ccc(C(F)(F)F)cn2)c1
2. CCCC1(c2cc(Cl)ncc2NC(=O)c2ccnc(Nc3ccc(C(F)(F)F)cn3)c2)OCCO1

1: 0.17; 2: 0.23

Count: 8. Required value per item: IC50.
1. O=C(Nc1cnccc1S(=O)(=O)c1ccccc1)c1ccnc(Nc2ccc(C(F)(F)F)cn2)c1
2. CC[C@@]1(c2cc(Cl)ncc2NC(=O)c2ccnc(Nc3ccc(C(F)(F)F)cn3)c2)OC[C@@H](C)O1
3. O=C(Nc1cncc(-c2ccccc2F)c1)c1ccnc(Nc2cccc(F)n2)c1
4. Cc1ccc(Nc2cc(C(=O)Nc3cnccc3-c3ccccc3)ccn2)nc1
5. COC(=O)/C=C/c1ccc(Nc2cc(C(=O)Nc3cncc(-c4ccccc4F)c3)ccn2)nc1
6. O=C(Nc1cnccc1C1OCCO1)c1ccnc(Nc2ccc(C(F)(F)F)cn2)c1
7. O=C(Nc1cnccn1)c1ccnc(Nc2ccc(C(F)(F)F)cn2)c1
8. O=C(Nc1cncc(F)c1-c1ccccc1)c1ccnc(Nc2ccc(C(F)(F)F)cn2)c1

[0.75, 0.94, 2.7, 4.8, 8, 46, 4.3, 1.4]
